B1: TRIM35 (parent)
chain: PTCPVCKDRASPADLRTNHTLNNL

Variants of: B1
Experiment: protein stability index of a GFP-peptide fusion (GPS, HEK-293T) (PSI 1-6); higher = more stable;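 note: lentivirally expressed fusions sorted by FACS into six bins by GFP to DsRed ratio, PSI derived from sequencing read proportions per bin multiplied by bin number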
Settings: c terminus: a fixed tail appended
What protein stability index was measured for each of the following?
Give bare numbers.

Examples with answers:
ordered_residues	protein stability index
PTCPVCKDRASPSDLRTNHTLNNL	2.87
PTCPVCKDRASPADLRTNDTLNNL	3.61

Quick batch: protein stability index for everything below.
1. PMCPVCKDRASPADLRTNHTLNNL
2. PTCPVCKDRASPADLRVNHTLNNL
3. PTCPVCKDRASPADCRTNHTLNNL
4. PTCPVCEDRASPADLRTNHTLNNL
5. NTCPVCKDRASPADLRTNHTLNNL

Completion:
1. 3.14
2. 2.6
3. 4.23
4. 3.88
5. 2.41

Quick batch: protein stability index for everything below.
1. PTCPVCKDRASPADLQTNHTLNNL
2. PTCPVCKDRASPADRRTNHTLNNL
3. PTCPVCKDRAKPADLRTNHTLNNL
4. PTCPVCKDRASPADLRMNHTLNNL

Completion:
3.39
3.33
3.32
2.67

Quick batch: protein stability index for everything below.
1. PTCPVCKDRASPADLVTNHTLNNL
2. PTHPVCKDRASPADLRTNHTLNNL
3. PTCPVCKDRASGADLRTNHTLNNL
4. PTCPVAKDRASPADLRTNHTLNNL
5. PTFPVCKDRASPADLRTNHTLNNL
6. PTCPVDKDRASPADLRTNHTLNNL

Completion:
[3.07, 3.84, 2.9, 4.55, 3.79, 4.74]

Quick batch: protein stability index for everything below.
1. PTCPVCFDRASPADLRTNHTLNNL
2. PTCPVCKDRASTADLRTNHTLNNL
3. PTCPVCKDRASIADLRTNHTLNNL
4. PTCPVCKDRASPADLRSNHTLNNL
5. PYCPVCKDRASPADLRTNHTLNNL

Completion:
2.94
2.96
2.47
3.13
2.3

Entry source: the supplement of paper PMC10567573
